# measurement notes: reduced ATP signal of yeast carrying P. falciparum Hsp90 – S. cerevisiae, BacTiter-Glo luminescence, single point, set 2, antimalarial PfHsp90 inhibitor project, primary screen (AID 504621);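 also: yeast relying on Plasmodium falciparum Hsp90 in place of its own; 0% = DMSO neutral controls and 100% = 20 µM radicicol positive controls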
# recorded conditions: S. cerevisiae expressing PfHsp90, growth, 48 h, at 9.4 µM, hits give high values, yeast lacking PDR1 and PDR3 efflux regulators
About 970 (0.31%) of roughly 310,000 compounds were called active. The list comes from a sample in which actives are over-represented; it also holds close analogues and randomly drawn compounds.
measurement name: inhibition (%)

>>> numeric_readout("O=C(O)CC1=C(Nc2ccccc2)C(=O)N(c2ccccc2)C1c1ccc(Cl)cc1 (stereo unspecified)")
-10.5
>>> numeric_readout("CCCCN(C(=O)CSCc1ccc(C)cc1)c1c(N)n(Cc2ccccc2)c(=O)[nH]c1=O")
-17.2
>>> numeric_readout("CCOC(=O)c1ccc(N2C(=O)CC(N3CC(C)OC(C)C3)C2=O)cc1 (stereo unspecified)")
11.2
>>> numeric_readout("COc1ccc(C(CNC(=O)c2cccc(S(=O)(=O)Nc3ccc(Br)cc3)c2)N(C)C)cc1 (stereo unspecified)")
3.14
>>> numeric_readout("O=C1/C(=C\\c2ccc(O)cc2)CCC1CNc1ccc(Cl)cc1 (stereo unspecified)")
42.3
>>> numeric_readout("O=C(CSc1ccc(-c2ccco2)nn1)Nc1cccc(F)c1")
-6.54
>>> numeric_readout("O=[N+]([O-])c1ccc(NS(=O)(=O)c2ccccc2)c(Cl)c1")
-12
>>> numeric_readout("COc1cc(/C=C/c2ccc(/C=C/c3cc(OC)c(OC)c(OC)c3)cc2)cc(OC)c1OC")
-3.68
>>> numeric_readout("O=S(=O)(NC1CC2CCC1C2)c1ccc(Cl)cc1 (stereo unspecified)")
104
>>> numeric_readout("O=C(CSc1ccc(-c2ccc(-n3cccn3)cc2)nn1)Nc1ccc([N+](=O)[O-])cc1")
2.41
>>> numeric_readout("CC(C)N(C(=O)[C@H]1C[C@H](CC(=O)NC(C)(C)C)C(=O)N2CCc3c([nH]c4ccc(Cl)cc34)[C@]12C)C(C)C")
21.3
>>> numeric_readout("O=[N+]([O-])c1ccc(C=Nc2ccc(Cl)cc2Cl)s1")
110
>>> numeric_readout("Cc1ccc2nc(-c3ccncc3)cc(C(=O)Nc3ccncc3)c2c1")
-8.61
>>> numeric_readout("O=C(CSc1ccc(-c2ccccn2)nn1)Nc1ccccc1")
119
>>> numeric_readout("C=CCNC(=S)N1CCN(CCN=Cc2c(C)[nH]n(-c3ccc([N+](=O)[O-])cc3)c2=O)CC1")
-11.1
>>> numeric_readout("O=C(Cc1ccccc1)NC(=S)Nc1ccc(N2CCCCC2)cc1")
-35.9
>>> numeric_readout("O=S(=O)(NC1CC1)c1ccc(Cl)cc1")
-7.47
>>> numeric_readout("O=C1C=C(c2ccc(Cl)cc2)C(=O)N1Nc1ccccc1")
134
>>> numeric_readout("Cc1[nH]n(-c2ccc([N+](=O)[O-])cc2)c(=O)c1C=NCCN1CCN(C(=O)c2ccccc2F)CC1")
86.9
>>> numeric_readout("COc1ccc(C(=O)Nc2cccc(/C=C(/CCC(=O)O)c3nc4ccccc4s3)c2)cc1")
-6.48
>>> numeric_readout("Cc1[nH]n(-c2ccccc2)c(=O)c1N=Nc1ccccc1C(=O)N1CCCCC1")
9.24

###

Listed here are molecules together with their documented inhibition.
# measurement notes: reduced ATP signal of yeast carrying P. falciparum Hsp90 – S. cerevisiae, BacTiter-Glo luminescence, single point, set 2, antimalarial PfHsp90 inhibitor project, primary screen (AID 504621);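 also: yeast relying on Plasmodium falciparum Hsp90 in place of its own; 0% = DMSO neutral controls and 100% = 20 µM radicicol positive controls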
# recorded conditions: S. cerevisiae expressing PfHsp90, growth, 48 h, at 9.4 µM, hits give high values, yeast lacking PDR1 and PDR3 efflux regulators
About 970 (0.31%) of roughly 310,000 compounds were called active. The entries come from a sample that favours actives as a whole.
measurement name: inhibition (%)

>>> numeric_readout("O=C1C(Cl)=C(Oc2ccccc2)C(=O)c2ccccc21")
104
>>> numeric_readout("CCNC(=O)N1CCCC(C(=O)c2ccc(-c3ccccc3)cc2)C1 (stereo not given)")
-1.67
>>> numeric_readout("CCN(CC)CCCC(C)n1c2nc(=O)[nH]c(=O)c-2nc2cc(Cl)ccc21 (stereo not given)")
-9.23
>>> numeric_readout("N#CC1=C(N)Oc2cc(N)ccc2C1c1ccccc1 (stereo not given)")
-6.35
>>> numeric_readout("CC1(C)N=C(N)NC(Nc2ccc(Cl)cc2)=N1")
7.88
>>> numeric_readout("Cc1ccc(C)c(N2CCN(C(=O)CCc3nc(-c4cccc(C(F)(F)F)c4)no3)CC2)c1")
-1.63
>>> numeric_readout("Cc1ccc(S(=O)(=O)N2CCN(C(=O)COC(=O)/C=C/c3cccc(Cl)c3)CC2)c(C)c1")
4.86
>>> numeric_readout("CC(=O)N(C1=C(Cl)C(=O)c2ccccc2C1=O)c1ccc(C(=O)O)cc1")
13.4
>>> numeric_readout("Cc1cc(NC(=O)C(C)SCC(=O)Nc2cccc(S(=O)(=O)N3CCCCCC3)c2)no1 (stereo not given)")
-41.5
>>> numeric_readout("CCc1ccc(C(=O)C(C)OC(=O)CN2C(=O)NC3(CCCC3)C2=O)cc1 (stereo not given)")
-1.32
